Assay: Cell viability (PI exclusion, flow cytometry)
Format: cell-based, murine
Details: mouse, J774.2 macrophages, 10 μM, 24 hour exposure; LPS + INFγ activated (FIG. 14A column c); read-out: decrease in viability, activated cells
QUANTITY: cytotoxicity at 24 h, 10 μM

Can you share its cytotoxicity at 24 h, 10 μM? I mean this molecule: [Se] ≤ 50%

====

Assay: Cell viability (PI exclusion, flow cytometry)
Assay type: cell-based, murine
Settings: mouse, J774.2 macrophages, 10 μM, 24 hour exposure; not activated; read-out: decrease in viability, control cells
QUANTITY: cytotoxicity at 24 h, 10 μM (%)
Give a bare numeral; the unit % is implied.

Can you share its cytotoxicity at 24 h, 10 μM? I mean this compound: [Se] [selenium] 60

====

Experiment: Cell viability (PI exclusion, flow cytometry)
Format: cell-based, murine
Conditions: mouse, 10 μM during or after activation (FIGS. 14A, 14B); read-out: decrease in cell viability, activated and inactivated cells
QUANTITY: cytotoxicity at 10 μM

Can you share its cytotoxicity at 10 μM? I mean this compound: O=[Se](O)O [sodium selenite] ≤ 60%
